- System: NCI-H460
- Measurement description: NCI tumour cell line growth inhibition, 48 h
The source made the active and inactive calls. No stated cut-off is given here; in the data, active = GI50 up to about 1.1 µM and inactive = higher.

| Compound | GI50 |
| --- | --- |
| NCCNc1nc(N2CCCC2)c2nc(Cl)c(NCc3ccccc3)nc2n1 | 1.85 µM (inactive) |
| O=C(COc1ccc(OCC(=O)N2C(=O)CC(=O)N(c3ccc(Cl)cc3)C2=S)cc1)N1C(=O)CC(=O)N(c2ccc(Cl)cc2)C1=S | 29.2 µM (inactive) |
| CC(=O)OC1COC(n2nc(/C=C/c3ccc(Cl)cc3)c(=O)n(/N=C/c3ccccc3)c2=S)C(OC(C)=O)C1OC(C)=O (centres undefined) | > 100 µM (inactive) |
| O=C1CSC2=NC3=C(CSC/C3=C\c3ccccc3)C(c3ccccc3)N12 (centres undefined) | 81.3 µM (inactive) |
| COc1ccc(N(C(=O)NCCO)c2ccccc2)cc1 | > 100 µM (inactive) |
| COC(=O)C(Cc1nc2ccccc2nc1O)C(=O)C(=O)Nc1cc(C(F)(F)F)ccc1Cl (centres undefined) | 19 µM (inactive) |
| C[C@H]1S[C@H](c2c(F)cccc2F)n2c1nc1ccccc12 | 25.4 µM (inactive) |
| CCOC(=O)N1C=CC(=C2C(=C3C=CN(C(=O)OCC)C=C3)C(=C3C=CN(C(=O)OCC)C=C3)C2=C2C=CN(C(=O)OCC)C=C2)C=C1 | 22.9 µM (inactive) |
| COc1cc2c[n+]3ccc4cc(OC)c(OC)cc4c3cc2cc1O | > 100 µM (inactive) |

###

Each entry below lists one item and its recorded GI50 value.
- Test system: TK-10
- Measurement description: NCI tumour cell line growth inhibition, 48 h
Active and inactive are the calls of the source. No stated cut-off is given here; in the data, active = GI50 up to about 1.1 µM and inactive = higher.
Parameter: GI50

| Molecule | Value measured |
| --- | --- |
| Oc1ccc(/N=N/c2ccc(Cl)cc2)cc1 | 18.1 µM (inactive) |
| CC1=CC(=O)/C(=C/NC(=S)Nc2ccc(S(N)(=O)=O)cc2)C(=O)O1 | > 100 µM (inactive) |
| N#CC1C(=O)Nc2sc(C(=O)c3ccc(Br)cc3)c(N)c2C12CCCCC2 (stereo unspecified) | 33.2 µM (inactive) |
| Cn1nc(Cc2ccc(Cl)cc2)n(N)c1=O | > 100 µM (inactive) |
| CC(C)OC(=O)c1ccc(CCC2=CC(=O)C=CC2=O)cc1 | 9.73 µM (inactive) |
| COc1ccc(CNc2nc(NC3CCCCC3)nc(NC3CCCCC3)n2)cc1 | 10 µM (inactive) |

###

Consider the following compounds and their measured GI50 readings.
- System: MDA-MB-231
- Measurement description: NCI tumour cell line growth inhibition, 48 h
Active and inactive are the calls of the source. No stated cut-off is given here; in the data, active = GI50 up to about 1.1 µM and inactive = higher.
Parameter: GI50

| Compound | Parameter | Value measured |
| --- | --- | --- |
| NN/C(=N\S(=O)(=O)c1cc(S(=O)(=O)c2ccccc2)cs1)Nc1ccc(Cl)cc1 | GI50 | 27.4 µM (inactive) |
| c1ccc(/N=C(\N2CCOCC2)N(CCN2CCOCC2)c2ccccc2)cc1 | GI50 | > 100 µM (inactive) |
| COC1(c2cccs2)c2ccccc2C(OC)(c2cccs2)c2ccccc21 (stereo unspecified) | GI50 | 26.4 µM (inactive) |
| C[C@]12CC[C@H](O)CC1=CC[C@@H]1[C@@H]2CC[C@]2(C)/C(=N/OCCN3CCCC3)CC[C@@H]12 | GI50 | 19.9 µM (inactive) |
| N#CC1C(=O)Nc2sc(C(=O)c3ccc(Br)cc3)c(N)c2C12CCCCC2 (stereo unspecified) | GI50 | 23 µM (inactive) |
| Fc1ccc2c3c([nH]c2c1)CCNC3 | GI50 | > 100 µM (inactive) |
| Cn1nc(Cc2ccc(Cl)cc2)n(N)c1=O | GI50 | > 100 µM (inactive) |
| c1cnc(N2CCN(Cc3c[nH]c4ccccc34)CC2)nc1 | GI50 | 37.2 µM (inactive) |
| C=CCN1CCN([C@H](c2ccc(C(=O)N(CC)CC)cc2)c2cccc(OC)c2)CC1 | GI50 | > 25 µM (inactive) |
| CSc1nc2c(c(=O)[nH]1)N=C(c1ccc([N+](=O)[O-])cc1)CC(c1ccccc1)N2 (stereo unspecified) | GI50 | 32.3 µM (inactive) |
| O=C1C[C@@H](C(=O)OCc2ccccc2)NC(=O)C[C@@H](C(=O)OCc2ccccc2)NC(=O)C[C@@H](C(=O)OCc2ccccc2)N1 | GI50 | 14 µM (inactive) |

###

- Test system: NCI-H522
- Measurement description: NCI tumour cell line growth inhibition, 48 h
Activity calls are given as the source filed them. Cut-off read from the data, not from the text of the source: active = GI50 up to about 1.1 µM and inactive = higher.
Classes used: 1 = active, 0 = inactive

| Compound | Class name |
| --- | --- |
| Cc1ccc(S(=O)(=O)NC(=O)NC(Cc2ccccc2)C(=O)O)cc1 (centres undefined) | 0 |
| CC(=O)O/C(=C(/C#N)C(=O)O)C1C(C(=O)O)C(c2ccccc2[N+](=O)[O-])C=C(c2ccco2)N1c1ccncc1 (centres undefined) | 0 |
| CC1CCC2(C(=O)O)CCC3(C)C(=CCC4C5(C)CC(O)C(O)C(C)(CO)C5C(O)CC43C)C2C1C (centres undefined) | 0 |
| NC(=S)NNc1c([N+](=O)[O-])cnn(-c2ccccc2)c1=O | 0 |
| O=C(O)c1ccc(Nc2nc3cc(C(F)(F)F)ccc3nc2-c2ccccc2)cc1 | 0 |
| CC(C)[Si](OC1=C(c2ccccc2)C(NC(=O)/C=C/c2ccc([N+](=O)[O-])cc2)CCC1)(C(C)C)C(C)C (centres undefined) | 0 |
| O=C1OC(c2ccccc2)C2CC3CC4(CCC3CN12)OCCO4 (centres undefined) | 1 |
| C=C(CCC/C(C)=C/C=C/[C@]1(C)CCCc2ccoc21)CC(=O)O | 0 |
| Oc1ccc(/N=N/c2ccc(Cl)cc2)cc1 | 0 |

###

- Tested on: SNB-75
- Measurement description: NCI tumour cell line growth inhibition, 48 h
The source made the active and inactive calls. Cut-off read from the data, not from the text of the source: active = GI50 up to about 1.1 µM and inactive = higher.
Possible outcomes: 1 for active, -1 for inactive

| Compound | Class name |
| --- | --- |
| C/C(=C\c1ccc(Cl)cc1)C(C)(C)C(=O)O | -1 |
| c1ccc2sc(SSSc3nc4ccccc4s3)nc2c1 | -1 |
| O=c1c(Cc2cccc(Cc3c(O)oc4ccccc4c3=O)c2)c(O)oc2ccccc12 | -1 |
| COc1cc2c(cc1OC)C1c3ccccc3CCN1CC2 (configuration not stated) | -1 |
| CC1(C)CC(=O)c2c(nc3ccc4ccccc4c3c2-c2ccc(NC(=O)CCC(=O)Nc3ccc(-c4c5c(nc6ccc7ccccc7c46)CC(C)(C)CC5=O)cc3)cc2)C1 | -1 |
| CCOC(=O)C(=O)Nc1nc2ccc(OC)cc2s1 | -1 |
| CCOP(=O)(OCC)/C(F)=C/c1ccc(F)cc1 | -1 |
| CCCN(CCC)C1CC(n2cc(C)c(=O)[nH]c2=O)OC1CO (configuration not stated) | -1 |
| COc1ccc(C2ON(c3ccccc3)CC=C2C)cc1 (configuration not stated) | -1 |
| CC1(C)CNC(=O)C2(/C=N/C(C)(C)CNC(=O)C3(/C=N/1)CCCO3)CCCO2 (configuration not stated) | -1 |
| C/C=C\C(CC(=O)NCCC1CN(C(=O)c2ccccc2)c2ccccc21)CC(=O)OC (configuration not stated) | -1 |
| CC(=O)OC1COC(N2C(=O)C(=O)c3cc(Br)c([N+](=O)[O-])cc32)C(OC(C)=O)C1OC(C)=O (configuration not stated) | -1 |
| COc1cc2c[n+]3ccc4cc(OC)c(OC)cc4c3cc2cc1O | -1 |
| COc1ccc(/C=N/n2c(-c3ccccc3)n[nH]c2=O)cc1 | -1 |
| CC(=O)Nc1ccc(/C=C/C(=O)N2CC(CCl)c3c2cc(N)c2ccccc32)cc1 (configuration not stated) | 1 |
| CCCN(CCCCN1C(=O)c2ccccc2C1=O)CC1COc2ccccc2O1 (configuration not stated) | -1 |
| CC1CC(Nc2ccc(Br)cc2)N(C(=O)c2ccc(Br)cc2)O1 (configuration not stated) | -1 |
| C(=C\c1cccc(/C=C/c2ccccn2)n1)/c1ccccn1 | -1 |
| CC(=O)N(CCN1C(=O)c2ccccc2C1=O)CCN1C(=O)c2ccccc2C1=O | -1 |
| CC(=O)Oc1ccc2c3c1[C@@H]1O[C@@H]1c1cccc(c1-3)[C@@H]1O[C@H]21 | -1 |
| CN(CCO)CCC1COc2ccccc2O1 (configuration not stated) | -1 |
| CN1CCN(c2ncc3c(n2)sc2c(=O)n(-c4ccccc4)cnc23)CC1 | -1 |

###

- Tested on: IGROV-1
- Measurement description: NCI tumour cell line growth inhibition, 48 h
Active and inactive are the calls of the source. No stated cut-off is given here; in the data, active = GI50 up to about 1.1 µM and inactive = higher.
Outcome codes: true (1) = active, false (0) = inactive

| Molecule | Class name |
| --- | --- |
| CCCCCC/C=C\CCCCCCCCC(=O)c1cccc(OC)c1OC | false (0) |
| Cn1c(=O)c2c(no[n+]2[O-])c2ccccc21 | false (0) |
| C=C1C2C[C@@H]3O[C@H]4C[C@H]5O[C@@]6(C[C@@H]7O[C@]8(C[C@H](C)[C@@H]9O[C@@H]%10CC(C=O)O[C@@H]%10C[C@@H]9O8)C[C@H](C)[C@@H]7O6)C[C@H]5O[C@H]4[C@H](C)[C@H]3OC(=O)C[C@H]3CC[C@@H]4OC5[C@H]6O[C@]7(CC[C@H]8CC(=C)[C@H](CC[C@@H](C[C@H]1C)O2)O8)CC6O[C@@H]5[C@@H](O7)[C@H]4O3 (some centres undefined) | true (1) |
| CCOC(=O)N1C=CC(=C2C(=C3C=CN(C(=O)OCC)C=C3)C(=C3C=CN(C(=O)OCC)C=C3)C2=C2C=CN(C(=O)OCC)C=C2)C=C1 | false (0) |
| Cc1ccc(S(=O)(=O)NC(=O)NC(Cc2ccccc2)C(=O)O)cc1 (centres undefined) | false (0) |
| CC(=O)OCC12C(OC(C)=O)C[C@@H](C)C3(CC(c4ccoc4)OC3=O)C1CCC(OC(C)=O)C21CO1 (some centres undefined) | false (0) |
| C[C@]12CC[C@H](O)CC1=CC[C@@H]1C2CC[C@]2(C)NC(=O)C(C#N)CC12 (some centres undefined) | false (0) |
| Cc1cc(C(=O)N2CCN(Cc3ccccc3)CC2)c(C)o1 | false (0) |
| COc1ccc2[nH]c3c(C)c4ccnc(NCCCN(C)CCCN)c4c(C)c3c2c1 | true (1) |
